These entries and their values trace back to the supplement of paper PMC6555819.

Tested on: THRa:RXRa (NR concentration 90 nM, RXRa partner concentration 90 nM)
ASSAY NAME: PBM binding z-score (relative to random genomic background probes); higher = stronger binding; sequences stand for … in GC…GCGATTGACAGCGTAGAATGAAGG
In this section, each of the sequences is paired with its reported PBM binding z-score.
EXPERIMENTAL READOUT: PBM binding z-score

1) CAAACTACGTCAAAGGTCAAAGTCGAGCCAACCA = 3.5
2) GCTATTAGTCGAAAGGGCAACCGAATGATTCTCG = 0.548
3) ATGTCTAGGTAAGACTCAGTTCAGTGAAGAACGC = 0.567
4) CGAGCGAGGGCATGAGTTGATAGCAAATGCCGAT = 0.963
5) CAAACTAGGACAAAGGTCAAAGTCGAGCCAACCA = 4.13
6) GGAAAGAGGGCAAGTTGATAGCAGAGTTTGATGG = 1.02
7) TTAGCAAGGTGAAAGGTCGTTGATGCACGCCTTG = 3.02
8) TCATATAGGTATAGGTGAAAGTCGAACGATATGA = 0.242
9) TCATATAGGTAAAGGTGAACGTCGAACGATATGA = 1.5
10) CAGCCTAGGTCAGGGCCCGTATAGGAGGAACGTT = 1.73
11) TCTTTTAGATCAAAGGTTAAGAAAGCCGAAGCCT = 1.33
12) AGCGAAAGGTCGTGAGGTGAGTATACAGAAAGGC = 3.46
